# Assay Explanation: Octanol/water partition coefficient, log P of the compound by HPLC assay
# Assay type: physicochemical
Listed next: entries and their corresponding logP.
Reply: number alone, nothing else.

Below: 2 molecules and their reported logP.
Smiles Data	logP
O=C1O[C@@H](CN2CCOCC2)CN1c1ccc(-n2cc(-c3ccccn3)cn2)c(F)c1	2
O=C1O[C@@H](Cn2ccnn2)CN1c1ccc(-n2cc(-c3ccccn3)cn2)c(F)c1	2

Input: // logP lookup, key: COC(=O)NC[C@H]1CN(c2ccc(-n3cc(-c4ccccn4)cn3)c(F)c2)C(=O)O1
Output: 2.03

====

Listed next: entries and their corresponding solubility at 24 h.
# Assay Explanation: Solubility of compound in distilled water after 24 hrs by HPLC analysis
# Format: physicochemical
Lab book: enter the figure in µM, no units written.

Compound	Unit Abbreviation	solubility at 24 h
O=C1O[C@@H](CNC(=O)C(F)(F)F)CN1c1ccc(-n2cc(-c3ccccn3)cn2)c(F)c1	µM	114
O=C1O[C@@H](CN2CCOCC2)CN1c1ccc(-n2cc(-c3ccccn3)cn2)c(F)c1	µM	109
CNC(=O)[C@H]1CN(c2ccc(-n3cc(-c4ccccn4)cn3)c(F)c2)C(=O)O1	µM	26.2
COC(=O)NC[C@H]1CN(c2ccc(-n3cc(-c4ccccn4)cn3)c(F)c2)C(=O)O1	µM	34.1
CS(=O)(=O)NC[C@H]1CN(c2ccc(-n3cc(-c4ccccn4)cn3)c(F)c2)C(=O)O1	µM	2.3
COC(=O)CC1CCN(C[C@H]2CN(c3ccc(-n4cc(-c5ccccn5)cn4)c(F)c3)C(=O)O2)CC1	µM	92.1
CN(CCC#N)C[C@H]1CN(c2ccc(-n3cc(-c4ccccn4)cn3)c(F)c2)C(=O)O1	µM	64.5
O=C1OC(Cn2ccnc2)CN1c1ccc(-n2cc(-c3ccccn3)cn2)c(F)c1 (single isomer, unassigned)	µM	12.3

Input: // solubility at 24 h lookup, key: CCC(=O)NC[C@H]1CN(c2ccc(-n3cc(-c4ccccn4)cn3)c(F)c2)C(=O)O1
Output: 147

Input: // solubility at 24 h lookup, key: O=C1O[C@@H](CSc2cccs2)CN1c1ccc(-n2cc(-c3ccccn3)cn2)c(F)c1
Output: 8.5

Input: // solubility at 24 h lookup, key: CCN1CCN(C[C@H]2CN(c3ccc(-n4cc(-c5ccccn5)cn4)c(F)c3)C(=O)O2)CC1
Output: 706

Input: // solubility at 24 h lookup, key: COC[C@H]1CN(c2ccc(-n3cc(-c4ccccn4)cn3)c(F)c2)C(=O)O1
Output: 36.2

Input: // solubility at 24 h lookup, key: CCNC(=O)NC[C@H]1CN(c2ccc(-n3cc(-c4ccccn4)cn3)c(F)c2)C(=O)O1
Output: 222

Input: // solubility at 24 h lookup, key: CC(=O)OC[C@H]1CN(c2ccc(-n3cc(-c4ccccn4)cn3)c(F)c2)C(=O)O1
Output: 373
